measurement description: Pharmacokinetic profile after single oral, intranasal and intravenous betahistine in beagle dogs, Example 5
Assay type: in vivo
condition set: female, beagle, dog, in vivo, inhaled or intranasal, 13 mg/kg
measured quantity: half-life (h)
Express the result in h but write the number alone.

Prompt: Query: half-life; subject: O=C(O)Cc1ccccn1 [2-PAA, 2-pyridylacetic acid]
Completion: 2.97

###

measurement description: Single ascending-dose clinical trial of intranasal betahistine in healthy volunteers (plasma pharmacokinetics, LC-MS/MS)
condition set: both, human, plasma, inhaled or intranasal, 10 mg
measured quantity: Tmax
Number first, unit second: that is the form wanted.

Prompt: Entry under review: `CNCCc1ccccn1` . Reported Tmax?
Completion: 10 min
